Assay: Particle size distribution (volume diameter D10/D50/D90, span)
Type: physicochemical
Conditions: dry milled API, representative commercial lot
Structures can show the parent of a compound that is named as a salt.
Measured D90, listed per entry for reference.
value_kind: D90 (μm)

> print(dat)
                                   compound  value.kind  reported.result
1  COC(=O)/C=C/C(=O)OCCN1C(=O)CCC1=O [compound 4, diroximel fumarate]         D90              302
2  COC(=O)/C=C/C(=O)OCCN1C(=O)CCC1=O [compound 3, diroximel fumarate]         D90              307
3  COC(=O)/C=C/C(=O)OCCN1C(=O)CCC1=O [compound 1, diroximel fumarate]         D90              347
4  COC(=O)/C=C/C(=O)OCCN1C(=O)CCC1=O [compound 2, diroximel fumarate]         D90              347

====

Documented D10 across a set of compounds
Assay: Particle size distribution (volume diameter D10/D50/D90, span)
Assay type: physicochemical
Conditions: dry milled API, representative commercial lot
Where a name gives a salt, the structure may show the parent alone.
value_kind: D10 (μm)

> print(dat)
                                   compound  reported.result
1  COC(=O)/C=C/C(=O)OCCN1C(=O)CCC1=O [compound 4, diroximel fumarate]               16
2  COC(=O)/C=C/C(=O)OCCN1C(=O)CCC1=O [compound 3, diroximel fumarate]               18
3  COC(=O)/C=C/C(=O)OCCN1C(=O)CCC1=O [compound 1, diroximel fumarate]               17
4  COC(=O)/C=C/C(=O)OCCN1C(=O)CCC1=O [compound 2, diroximel fumarate]               17

====

Assay: Particle size distribution (volume diameter D10/D50/D90, span)
Format: physicochemical
Details: dry milled API, representative commercial lot
Structures can show the parent of a compound that is named as a salt.
Measured D50 of individual entries
value_kind: D50 (μm)

> print(dat)
                                   compound  value.kind  output.unit  reported.result
1  COC(=O)/C=C/C(=O)OCCN1C(=O)CCC1=O [compound 3, diroximel fumarate]         D50           μm              101
2  COC(=O)/C=C/C(=O)OCCN1C(=O)CCC1=O [compound 1, diroximel fumarate]         D50           μm               96
3  COC(=O)/C=C/C(=O)OCCN1C(=O)CCC1=O [compound 2, diroximel fumarate]         D50           μm              106
4  COC(=O)/C=C/C(=O)OCCN1C(=O)CCC1=O [compound 4, diroximel fumarate]         D50           μm               95

====

Assay: Particle size distribution (volume diameter D10/D50/D90, span)
Assay type: physicochemical
Conditions: dry milled API; (D90 − D10)/D50
Counter-ions that a name gives are not always drawn.
value_kind: Span

> print(dat)
                                   molecule  reported.result
1  COC(=O)/C=C/C(=O)OCCN1C(=O)CCC1=O [compound 3, diroximel fumarate]              2.9
2  COC(=O)/C=C/C(=O)OCCN1C(=O)CCC1=O [compound 4, diroximel fumarate]              3.0
3  COC(=O)/C=C/C(=O)OCCN1C(=O)CCC1=O [compound 2, diroximel fumarate]              3.1
4  COC(=O)/C=C/C(=O)OCCN1C(=O)CCC1=O [compound 1, diroximel fumarate]              3.4
